Attribution: patent US9328083B2

Tested on: PC-3 (prostate cancer)
Assay explanation: MTT growth inhibition of human solid tumor cells, 72 h
Assay type: cell-based
Assay context: Homo sapiens; PC-3, 72 h; read-out: IC90
Endpoint label: IC90 (µg/mL)

Examples with answers:
>>> df
                            compound_smiles  numeric_result
0  Cc1c(CN(C)CCOC(=O)CCC(=O)O)oc2c1C(=O)C(=O)c1c-2ccc2c(C)cccc12            7.04
1  Cc1c(CN(C)CCOC(=O)C2CCNCC2)oc2c1C(=O)C(=O)c1c-2ccc2c(C)cccc12            4.15
2  Cc1c(CNCCO)oc2c1C(=O)C(=O)c1c-2ccc2c(C)cccc12            3.58
3  CCN(C)Cc1oc2c(c1C)C(=O)C(=O)c1c-2ccc2c(C)cccc12            12.3
4  Cc1c(CN(C)CCOC(=O)[C@@H](N)C(C)C)oc2c1C(=O)C(=O)c1c-2ccc2c(C)cccc12            3.74

A = C#CCNCc1oc2c(c1C)C(=O)C(=O)c1c-2ccc2c(C)cccc12
B = COC(=O)/C=C/C(=O)OCCN(C)Cc1oc2c(c1C)C(=O)C(=O)c1c-2ccc2c(C)cccc12
Which of the two gives a bigger number for IC90: A or B ? Please identify the chosen entry by its label.
A
(A: 15.1 µg/mL, B: 8.19 µg/mL)

----------
System: RPMI8226 (multiple myeloma)
Assay explanation: MTT growth inhibition of multiple myeloma cells, 72 h
Format: cell-based, human
Assay context: Homo sapiens; RPMI 8226, 72 h; read-out: IC90
Endpoint label: IC90 (µg/mL)

Answered cases to consult:
>>> print(df.to_string())
                                   molecule  display_unit  numeric_result
0  Cc1c(CN(C)CCO)oc2c1C(=O)C(=O)c1c-2ccc2c(C)cccc12         µg/mL             0.8
1  Cc1c(CN(C)CCOC(=O)C2CCNCC2)oc2c1C(=O)C(=O)c1c-2ccc2c(C)cccc12         µg/mL            0.92
2  Cc1c(CNCC2CC2)oc2c1C(=O)C(=O)c1c-2ccc2c(C)cccc12         µg/mL            10.2
3  CCN(C)Cc1oc2c(c1C)C(=O)C(=O)c1c-2ccc2c(C)cccc12         µg/mL            5.87
4  Cc1c(CNCC2CCCCC2)oc2c1C(=O)C(=O)c1c-2ccc2c(C)cccc12         µg/mL              16

I = CC[N+](C)(Cc1ccc(F)c(Cl)c1)Cc1oc2c(c1C)C(=O)C(=O)c1c-2ccc2c(C)cccc12 (stereo not shown)
II = Cc1c(CN(C)CCOC(=O)CNC(=O)OC(C)(C)C)oc2c1C(=O)C(=O)c1c-2ccc2c(C)cccc12
III = Cc1c(COC(=O)c2ccnc(Cl)c2)oc2c1C(=O)C(=O)c1c-2ccc2c(C)cccc12
Task field, ranking: reported IC90, descending order. Note for the reader: the ranking is given by listing the labels in the order requested.
I, III, II

----------
Tested on: CNE (nasopharyngeal carcinoma cell)
Assay explanation: MTT growth inhibition of human solid tumor cells, 72 h
Type: cell-based
Assay context: Homo sapiens, read-out: IC50
Endpoint label: IC50 (µg/mL)

Recorded IC50, per entry:
In [3]: df
Out[3]:
                                   molecule  endpoint_label  numeric_result
0  Cc1c(CN(C)CCOC(=O)C2CCNCC2)oc2c1C(=O)C(=O)c1c-2ccc2c(C)cccc12 [BS-TA-64]            IC50             1.8
1  Cc1c(CNCC2CCCCC2)oc2c1C(=O)C(=O)c1c-2ccc2c(C)cccc12 [BS-TA-B06]            IC50            11.8
2  Cc1c(CN2CCCN(C)CC2)oc2c1C(=O)C(=O)c1c-2ccc2c(C)cccc12 [BS-TA-B12]            IC50            0.45
3  Cc1c(COC(=O)c2ccnc(Cl)c2)oc2c1C(=O)C(=O)c1c-2ccc2c(C)cccc12 [BS-TA-A01]            IC50             4.1
4  C#CCNCc1oc2c(c1C)C(=O)C(=O)c1c-2ccc2c(C)cccc12 [BS-TA-B21]            IC50            5.99

I = Cc1c(CN(C)CCOC(=O)CNC(=O)OC(C)(C)C)oc2c1C(=O)C(=O)c1c-2ccc2c(C)cccc12 [BS-TA-72]
II = Cc1c(CNCCO)oc2c1C(=O)C(=O)c1c-2ccc2c(C)cccc12 [BS-TA-65]
III = Cc1c(CN(C)CCOC(=O)CCC(=O)O)oc2c1C(=O)C(=O)c1c-2ccc2c(C)cccc12 [BS-TA-73]
Kindly order the items shown according to IC50, from the highest value down. Answer format: list of labels, ordered as asked.
I, III, II
